Origin of the recorded values: patent US8178506B2

test system: differentiated adipocytes; assay: Hallmark genes and triglycerides in differentiated adipocytes; assay type: cell-based, human; details: Table 28; differentiated adipocytes transfected day nine post-differentiation; 250 nM oligonucleotide
In the oligonucleotide strings, read from the 5' end, every base follows the letter of its sugar. An asterisk marks phosphorothioate; unmarked linkages are phosphodiester. Other units and linkages are bracketed, terminal groups are in braces. A string of capitals states the bases alone. e = 2'-O-(2-methoxyethyl) (MOE); [5mC] = 5-methylcytosine; d = 2'-deoxy (DNA)
outcome.measure: aP2
Format: numeric value only, no unit, no commentary.

So for 340927 (antisense eT*eG*eA*eG*e[5mC]*dT*dA*d[5mC]*dA*dG*dT*dG*d[5mC]*dT*dT*e[5mC]*eA*eT*e[5mC]*eT*e[5mC]*eA) [compound 340927] , the logged aP2 turned out to be 0.71

So for 327889 (antisense eG*eT*eG*eG*eT*eA*eA*eT*e[5mC]*e[5mC]*e[5mC]*eT*eG*eG*e[5mC]*eA*eA*eT*eG*eT*eG*eA*eT) [compound 327889] , the logged aP2 turned out to be 1.12

So for 327933 (antisense eA*eA*eG*eG*eG*eA*eT*eT*e[5mC]*e[5mC]*eT*eG*eG*eG*eA*eA*eA*eA*e[5mC]*eT*eG*eG*eA*e[5mC]) [compound 327933] , the logged aP2 turned out to be 1.58
